System: P. aeruginosa 198 (MDR)
protocolDetails: microbe, parasite or virus in culture
conditionDescription: Pseudomonas aeruginosa
measuredParameter: MIC (mg/L)
Numbers only; they are read as mg/L.

Below, 2 compounds whose answers are already recorded.
| compound | MIC (mg/L) |
| --- | --- |
| C[C@@H](O)[C@H]1C(=O)N2C(C(=O)O)=C(SCCN=CN)C[C@H]12 [Imipenem, reference compound] | 32 |
| O=C(O)c1cn(C2CC2)c2cc(N3CCNCC3)c(F)cc2c1=O [Ciprofloxacin, reference compound] | 32 |

Could you now consider this next compound?
Problem: Requested read-out: MIC. Entry: CC(C)(O/N=C(\C(=O)N[C@@H]1C(=O)N2C(C(=O)[O-])=C(C[n+]3ccccc3)CS[C@H]12)c1csc(N)n1)C(=O)O [Ceftazidime, reference compound]
Solution: 128

---

Tested on: erythrocytes
protocolDetails: Hemolytic activity (HD10/HD50)
Format: cell-based
Square brackets hold non-standard residues; d marks the D form. Peptide text beside a SMILES is read from it. Nspe = C[C@H](NCC(=O)O)c1ccccc1; Nlys = NCCCCNCC(=O)O
measuredParameter: HD50 (hemolytic activity)

| molecule | measuredParameter | result |
| --- | --- | --- |
| C[C@@H](c1ccccc1)N(CC(N)=O)C(=O)CN(C(=O)CN(CCCCN)C(=O)[C@@H]1CCCN1C(=O)CN(C(=O)CN(CCCCN)C(=O)CN(C(=O)CN(C(=O)CN(CCCCN)C(=O)CN(C(=O)CN(C(=O)CNCCCCN)[C@@H](C)c1ccccc1)[C@@H](C)c1ccccc1)[C@@H](C)c1ccccc1)[C@@H](C)c1ccccc1)[C@@H](C)c1ccccc1)[C@@H](C)c1ccccc1 [Peptoid 1-Pro9] (H-[Nlys][Nspe][Nspe][Nlys][Nspe][Nspe][Nlys][Nspe]P[Nlys][Nspe][Nspe]-NH2) | HD50 (hemolytic activity) | > 200 |

Let us examine a further case.
Problem: Which HD50 (hemolytic activity) value is on record for C[C@@H](c1ccccc1)N(CC(N)=O)C(=O)CN(C(=O)CN(CCCCN)C(=O)CN(C(=O)CN(C(=O)CN(CCCCN)C(=O)CN(C(=O)CN(C(=O)CN(CCCCN)C(=O)[C@@H]1CCCN1C(=O)CN(C(=O)CNCCCCN)[C@@H](C)c1ccccc1)[C@@H](C)c1ccccc1)[C@@H](C)c1ccccc1)[C@@H](C)c1ccccc1)[C@@H](C)c1ccccc1)[C@@H](C)c1ccccc1 [Peptoid 1-Pro3, H-NLys-Nspe-L-Pro-(NLys-Nspe-Nspe)3-NH2] (H-[Nlys][Nspe]P[Nlys][Nspe][Nspe][Nlys][Nspe][Nspe][Nlys][Nspe][Nspe]-NH2) ?
Solution: > 200

---

Test system: P. aeruginosa 9 (MDR)
protocolDetails: microbe, parasite or virus in culture
conditionDescription: 9 (MDR)
Numbered stars: 1 amine (or outer) side, 2 acyl side, 3 side chain; on linkers, the order of the positions; unused ones are H or OH. Square brackets hold non-standard residues; d marks the D form. Peptide text beside a SMILES is read from it. X1 = CC(C)[C@H](C)N(CC(=O)[*:2])[*:1]; Nspe = C[C@H](NCC(=O)O)c1ccccc1; Nphe = O=C(O)CNCc1ccccc1; Nlys = NCCCCNCC(=O)O
Measured MIC, listed per entry.
Number in µg/mL, nothing else.

Completed entries (count: 4):
| compound | MIC / µg/mL |
| --- | --- |
| C[C@@H](c1ccccc1)N(CC(=O)N(CC(=O)N(CCCCN)CC(=O)N(CC(=O)N(CC(=O)N(CCCCN)CC(=O)N(CC(=O)N(CC(=O)N(CCCCN)CC(=O)N(CC(=O)N(CC(N)=O)Cc1ccccc1)Cc1ccccc1)Cc1ccccc1)Cc1ccccc1)Cc1ccccc1)Cc1ccccc1)Cc1ccccc1)C(=O)CNCCCCN [Peptoid 1ach-Nspe2, H-(NLys-Nspe-Npm)- (NLys-Npm-Npm)3-NH2] (H-[Nlys][Nspe][Nphe][Nlys][Nphe][Nphe][Nlys][Nphe][Nphe][Nlys][Nphe][Nphe]-NH2) | 64 |
| CC(C)[C@H](C)N(CC(=O)N(CC(=O)N(CCCCN)CC(=O)N(CC(=O)N(CC(=O)N(CCCCN)CC(=O)N(CC(=O)N(CC(=O)N(CCCCN)CC(=O)N(CC(=O)N(CC(N)=O)[C@@H](C)c1ccccc1)[C@@H](C)C(C)C)[C@@H](C)c1ccccc1)[C@@H](C)C(C)C)[C@@H](C)c1ccccc1)[C@@H](C)C(C)C)[C@@H](C)c1ccccc1)C(=O)CNCCCCN [1-Nsdp2.5.8.11, H-(NLys-Nsdp-Nspe)4-NH2] (H-[Nlys][X1][Nspe][Nlys][X1][Nspe][Nlys][X1][Nspe][Nlys][X1][Nspe]-NH2) | 256 |
| C[C@@H](c1ccccc1)N(CC(N)=O)C(=O)CN(CCCCN)C(=O)CN(CCCCN)C(=O)CN(C(=O)CN(C(=O)CN(CCCCN)C(=O)CN(C(=O)CN(CCCCN)C(=O)CN(CCCCN)C(=O)CN(C(=O)CN(C(=O)CNCCCCN)[C@@H](C)c1ccccc1)[C@@H](C)c1ccccc1)[C@@H](C)c1ccccc1)[C@@H](C)c1ccccc1)[C@@H](C)c1ccccc1 [1-NLys5,11, H-(NLys-Nspe-Nspe-NLys-NLys-Nspe)2-NH2] (H-[Nlys][Nspe][Nspe][Nlys][Nlys][Nspe][Nlys][Nspe][Nspe][Nlys][Nlys][Nspe]-NH2) | 64 |
| C[C@H](NCC(=O)N(CC(=O)N(CCCCN)CC(=O)N(CC(=O)N(CCCCN)CC(=O)N(CC(=O)N(CCCCN)CC(=O)N(CC(=O)N(CC(=O)N(CC(=O)N(CC(=O)N(CCCCN)CC(N)=O)[C@@H](C)c1ccccc1)[C@@H](C)c1ccccc1)[C@@H](C)c1ccccc1)[C@@H](C)c1ccccc1)[C@@H](C)c1ccccc1)[C@@H](C)c1ccccc1)[C@@H](C)c1ccccc1)c1ccccc1 [Peptoid 1scr, H-(Nspe)2-(NLys-Nspe)3-(Nspe)3-NLys-NH2] (H-[Nspe][Nspe][Nlys][Nspe][Nlys][Nspe][Nlys][Nspe][Nspe][Nspe][Nspe][Nlys]-NH2) | 256 |

Would you kindly look at the next entry?
Problem: Would you mind telling me what MIC value was observed for C[C@@H](c1ccccc1)N(CC(N)=O)C(=O)CN(Cc1ccccc1)C(=O)CN(CCCCN)C(=O)CN(Cc1ccccc1)C(=O)CN(Cc1ccccc1)C(=O)CN(CCCCN)C(=O)CN(Cc1ccccc1)C(=O)CN(Cc1ccccc1)C(=O)CN(CCCCN)C(=O)CN(Cc1ccccc1)C(=O)CN(Cc1ccccc1)C(=O)CNCCCCN ?
Solution: 64
